# credit: the Human Domainome abundance scans (Beltran et al. 2025)

B1: Membrane-associated guanylate kinase, WW and PDZ domain-containing protein 2, residues 601 to 682; numbered along this chain, Q86UL8 (parent)
chain: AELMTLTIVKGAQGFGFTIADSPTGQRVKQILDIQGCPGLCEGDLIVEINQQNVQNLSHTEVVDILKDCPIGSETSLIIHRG

variants of: B1; experiment: abundance fitness (aPCA) (normalised: wild type 0, dead -1); higher = more abundant; growth selection in yeast, the domain comes from the species named; conditions: Homo sapiens
Binned abundance fitness; ranges: low value (below -0.2), medium value (-0.2 to below -0.03), high value (-0.03 or more)

[
  {
    "VARIANT DESIGNATION": "E74D",
    "CATEGORY": "high value"
  },
  {
    "VARIANT DESIGNATION": "N56M",
    "CATEGORY": "medium value"
  },
  {
    "VARIANT DESIGNATION": "E61M",
    "CATEGORY": "high value"
  },
  {
    "VARIANT DESIGNATION": "K29E",
    "CATEGORY": "high value"
  },
  {
    "VARIANT DESIGNATION": "N50Y",
    "CATEGORY": "low value"
  },
  {
    "VARIANT DESIGNATION": "T60S",
    "CATEGORY": "medium value"
  }
]

Exercise: read the entry E61K and state which class it falls under.
medium value

Tag the class for P70R
high value

Any idea which band D44E is in?
low value
